Catalogue of compounds with associated IC50
- Assayed target: PI3K γ (Homo sapiens (Human))
- Sequence (P48736 whole entry): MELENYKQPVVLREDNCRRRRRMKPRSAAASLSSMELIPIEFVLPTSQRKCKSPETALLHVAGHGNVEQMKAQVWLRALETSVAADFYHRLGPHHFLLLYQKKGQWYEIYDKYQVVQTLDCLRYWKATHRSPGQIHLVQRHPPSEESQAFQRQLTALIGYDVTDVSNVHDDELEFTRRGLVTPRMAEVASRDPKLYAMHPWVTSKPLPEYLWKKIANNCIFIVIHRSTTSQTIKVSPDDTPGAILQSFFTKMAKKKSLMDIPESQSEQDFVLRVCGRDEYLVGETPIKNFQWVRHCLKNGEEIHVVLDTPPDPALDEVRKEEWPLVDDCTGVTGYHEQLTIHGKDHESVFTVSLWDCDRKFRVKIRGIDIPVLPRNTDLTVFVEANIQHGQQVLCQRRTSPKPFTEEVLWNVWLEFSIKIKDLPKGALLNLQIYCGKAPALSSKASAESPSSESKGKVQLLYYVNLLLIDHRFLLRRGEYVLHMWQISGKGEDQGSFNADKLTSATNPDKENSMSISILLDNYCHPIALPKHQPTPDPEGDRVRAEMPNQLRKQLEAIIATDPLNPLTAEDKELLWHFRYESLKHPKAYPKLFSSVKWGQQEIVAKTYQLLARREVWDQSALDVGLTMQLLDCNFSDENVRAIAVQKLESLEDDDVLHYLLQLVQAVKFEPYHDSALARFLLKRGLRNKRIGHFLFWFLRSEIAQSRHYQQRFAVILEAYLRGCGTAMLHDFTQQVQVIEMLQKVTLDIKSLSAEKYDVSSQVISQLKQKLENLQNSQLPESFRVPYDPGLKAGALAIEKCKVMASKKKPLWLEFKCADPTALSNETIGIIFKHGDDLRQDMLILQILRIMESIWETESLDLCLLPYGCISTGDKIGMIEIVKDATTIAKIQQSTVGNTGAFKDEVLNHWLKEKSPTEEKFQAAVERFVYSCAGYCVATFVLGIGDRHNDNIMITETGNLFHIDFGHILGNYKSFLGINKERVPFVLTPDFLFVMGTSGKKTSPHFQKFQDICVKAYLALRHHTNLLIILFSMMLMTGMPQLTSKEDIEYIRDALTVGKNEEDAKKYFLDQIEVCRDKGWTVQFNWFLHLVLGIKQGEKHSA
- Protocol text: PI 3-Kinase (human) HTRF assay, p110γ
- Assay type: biochemical
- Test conditions: read-out: PI3K γ IC50
Value type: IC50

> print(dat)
                                 chem.smiles  test.value
 1  CN1CCN(c2cc(-c3ccnc4ccc(-c5ccc6oc(N)nc6c5)cc34)ccn2)CC1    < 0.1 µM
 2  Nc1nc2cc(-c3cnc4ccc(N5CCOCC5)nc4c3)ccc2o1     < 10 µM
 3  CS(=O)(=O)N1CCN(Cc2cc3nc(-c4ccc5oc(N)nc5c4)nc(N4CCOCC4)c3s2)CC1    < 0.1 µM
 4  C[C@@H]1COCCN1c1cnc2ccc(-c3ccc4oc(N)nc4c3)nc2n1    < 0.1 µM
 5  Nc1nc2cc(-c3ccc4ncc(C(=O)N5CCC(O)CC5)n4c3)ccc2o1     < 10 µM
 6  Nc1nc2cc(-c3ccc4nccc(NCCN5CCOCC5)c4c3)ccc2o1      < 1 µM
 7  Nc1nc2cc(-c3cnc4ccc(N5C6CCC5COC6)nc4c3)ccc2o1     < 10 µM
 8  Nc1nc2cc(-c3ccc4ncc(N5CCOCC5)n4n3)ccc2o1     < 10 µM
 9  CN1CCN(C(=O)c2cnc3cnc(-c4ccc5oc(N)nc5c4)cn23)CC1     > 10 µM
10  Nc1nc2cc(-c3ccc4nccc(N5CCOCC5)c4c3)ccc2o1    < 0.1 µM
11  Nc1nc2cc(-c3ccc4ncc(N5CCC(O)CC5)cc4n3)ccc2o1      < 1 µM
12  CN1CCN(c2cnc3ccc(-c4ccc5nc(N)sc5c4)cc3n2)CC1     < 10 µM
13  CC1(C)CN(C2CN(c3cnc4ccc(-c5ccc6oc(N)nc6c5)nc4n3)C2)CCO1     < 10 µM
14  Nc1nc2cc(-c3cn4c(-c5ccncc5)cnc4cn3)ccc2o1      < 1 µM
15  CN1CCCN(c2cnc3ccc(-c4ccc5oc(N)nc5c4)cc3n2)CC1     < 10 µM
16  CC(=O)Nc1cn2cc(-c3ccc4nccc(-c5ccncc5)c4c3)ccc2n1     > 10 µM
17  CS(=O)(=O)N1CCC(Nc2cnc3ccc(-c4ccc5oc(N)nc5c4)cc3n2)CC1    < 0.1 µM
18  CN1CCN(c2cc(-c3cnc4ccc(-c5ccc6oc(N)nc6c5)cn34)ccn2)CC1    < 0.1 µM
19  CC(C)(N)C(=O)N1CCN(c2cnc3ccc(-c4ccc5oc(N)nc5c4)nc3n2)CC1     < 10 µM
20  Cn1cc(-c2cnc3ccc(-c4ccc5oc(N)nc5c4)cc3n2)cn1    < 0.1 µM
